Below are pIC50 values measured for USP30 (Homo sapiens (Human)).
pIC50: −log10 of the molar value.

# annotated cases, reported pIC50 shown
compound=Cc1nn(C)cc1-c1ccc2nc(C(=O)N[C@@H]3CCN(C#N)C3)cn2c1 recorded_value="6.00 to 7.00"
compound=COCCn1cc(-c2ccc(C(=O)N[C@@H]3CCN(C#N)C3)c(F)c2)cn1 recorded_value="6.00 to 7.00"
compound="Cn1cc(-c2cc(C(=O)N3CC[C@@H]4CN(C#N)C[C@@H]43)ccc2F)cn1 (racemic)" recorded_value="6.00 to 7.00"
compound=N#CN1CC[C@@H](NC(=O)c2cc(-c3ccccn3)[nH]n2)C1 recorded_value="6.00 to 7.00"
compound=C[C@@H]1CN(C#N)C[C@H]1NC(=O)c1cnc(-c2ccccc2)s1 recorded_value="> 7.00"
compound=N#CN1CC[C@@H](NC(=O)c2ccc(-c3ccncc3Cl)cc2)C1 recorded_value="> 7.00"
compound=Cc1nn(C)cc1-c1ccn2c(C(=O)N(C)[C@@H]3CCN(C#N)C3)cnc2c1 recorded_value="6.00 to 7.00"
compound=COc1ccc(-c2cc(C(=O)N[C@@H]3CCN(C#N)C3)n[nH]2)cc1 recorded_value="> 7.00"
compound=N#CN1CC[C@@H](NC(=O)c2ccc(-c3cnc4cnccn34)cc2F)C1 recorded_value="> 7.00"
compound=N#CN1CC[C@@H](NC(=O)c2cc(-c3ccccc3)ccn2)C1 recorded_value="6.00 to 7.00"

Specify measured pIC50 for `COc1cccc(-c2cc(C(=O)N[C@@H]3CCN(C#N)C3)on2)c1` .
> 7.00

Give the value of pIC50 reported for the following: `CN(C(=O)Nc1ccc(-c2cnn(C)c2)cc1)[C@@H]1CCN(C#N)C1`
6.00 to 7.00

Specify measured pIC50 for `N#CN1CC[C@@H](NC(=O)N2CC(c3ccccc3)C2)C1` .
6.00 to 7.00

Please supply the value of reported pIC50 for the item `CN(C(=O)Nc1ccnc(N2Cc3ccccc3C2)c1)[C@@H]1CCN(C#N)C1`
6.00 to 7.00

For the compound N#CN1C[C@H]2CCN(C(=O)c3ccc(F)c(-c4ccncc4)c3)[C@H]2C1 (racemic) , give its reported pIC50.
6.00 to 7.00

Each recorded value in this set is attributed to patent US10343992B2.
